Please respond with reported z-score for every item in the list.
assay: MM1S cell viability effects, profiling panel, calcein-AM fluorescence, 48 h, basal (AID 1165); conditions: higher = more signal;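 further: viability of MM1S multiple myeloma cells under basal unstimulated conditions; test concentration not given here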

Field: example entries. Status: answers known.
molecule: CCN1C(=O)[C@H]2[C@H]3[C@H](O)[C@H](O)CC(=NOC[C@@H](C)[C@H](OCc4ccccc4)C(C)C)[C@@H]3CC[C@H]2C1=O
z-score: -1.76
//
molecule: CC(=O)OC[C@H]1O[C@H](CC=NOC[C@@H](C)[C@H](OCc2ccccc2)C(C)C)C=C[C@@H]1OC(C)=O
z-score: -0.886

# map each molecule to its z-score
1. CC(C)[C@@H](OCc1ccccc1)[C@H](C)C=NOC[C@@H](C)[C@H](OCc1ccccc1)C(C)C
2. CCOC(=O)[C@H](CC(C)C)NC(=O)CCC1CC(OC(=O)NCc2cccc3ccccc23)CC2(CCCC(COC(=O)NCCc3ccccc3OC)O2)O1 (some centres not stated)
3. CCOC(=O)[C@H](Cc1ccccc1)NC(=O)CCC1CC(OC(=O)NCc2ccc3c(c2)OCO3)CC2(CCCC(COC(=O)NCc3cccc(C(F)(F)F)c3)O2)O1 (some centres not stated)
4. COCCCNC(=O)[C@]1(CCC(=O)OC(C)(C)C)N=C(c2ccc(OCCCO)cc2)O[C@@H]1c1ccccc1N=[N+]=[N-]
5. CO[C@@H]1COC(=O)CC=C[C@@H](C)[C@@H]2C=C[C@H](O)[C@@H](COC(=O)CCC[C@H]1C)O2

**A:**
1: 0.27; 2: 0.0779; 3: 0.706; 4: -0.744; 5: -0.567
